Data provenance: PubChem BioAssay AID1159580

Assay: chemical genetic growth profiling, strain panel (AID 1159580);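 further: tested at 20 µM; growth read once vehicle control cultures reached saturation at 30 °C; 1 = growth at the plate median or of vehicle wells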
Settings: S. cerevisiae deletion strains, growth OD, locus YOR106W, strain vam3
The campaign covered roughly 5,500 compounds. About 2,000 (36%) were called active. Not shown: some 18% with an inconclusive outcome. No stated cut-off is given here; in the data, active means normalized growth mostly below about 0.91 (no sharp cut-off); inconclusive means no clear call, values can overlap the other calls; inactive means mostly above about 0.92. The list shows a part of the results.
Field 'call' accepts 1 for active, 0 for inactive

Answered cases to consult:
Query: # fetch the recorded call for CCOc1ccc2nc3cc(N)ccc3c(N)c2c1 here
Response: 1

Query: And then COC1=C[C@@H]2[C@@H]3Cc4ccc(OC)c(O)c4[C@]2(CCN3C)CC1=O , what is it?
Response: 0

Query: And then COc1ccc2c3c([nH]c2c1)C(C)=NCC3 , what is it?
Response: 0

Query: And then COC(=O)C[C@H]1C(C)(C)C2(O)OC34CC2C(=O)[C@]1(C)C3CC[C@]1(C)C4=CC(=O)O[C@H]1c1ccoc1 (some centres undefined) , what is it?
Response: 0

Query: And then CCCOc1ccccc1-c1nc2n[nH]nc2c(=O)[nH]1 , what is it?
Response: 0

New cases:
Query: # fetch the recorded call for Nc1c2c(nc3ccccc13)CCCC2O (centres undefined) here
Response: 0

Query: And then NNc1nncc2ccccc12 , what is it?
Response: 0

Query: And then NC12CC3CC(CC(C3)C1)C2 , what is it?
Response: 0

----------
Assay: chemical genetic growth profiling, strain panel (AID 1159580);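 further: tested at 20 µM; growth read once vehicle control cultures reached saturation at 30 °C; 1 = growth at the plate median or of vehicle wells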
Settings: S. cerevisiae deletion strains, growth OD, locus YDR162C, strain NBP2, stronger effect = lower value
Hit rate of the full screen: of about 5,500 compounds, about 2,000 (36%) were called active. Roughly 18% stayed inconclusive and do not appear here. Some of the results follow.
Each entry below carries its reported normalized growth.
Number, no unit, nothing else.

As a guide, the following entries are already answered.
Query: // returns reported normalized growth for input COC(=O)C[C@H]1C(C)(C)C(=O)[C@@H]2CC3C4=CC(=O)O[C@@H](c5ccoc5)[C@]4(C)CCC3[C@@]1(C)C2=O (stereo partly specified)
Response: 0.96

Query: And then Cc1cc(O)c2c(c1)Cc1cccc(O)c1C2=O , what is it?
Response: 0.905

Query: And then CC1(C)CC[C@@]2(C(=O)O)C(C1)C1=CCC3[C@@]4(C)CC[C@H](O)C(C)(C)C4CC[C@@]3(C)[C@]1(C)C[C@@H]2O (stereo partly specified) , what is it?
Response: 1.01

Query: And then O=C1c2c(O)cccc2Cc2cccc(O)c21 , what is it?
Response: 1.03

Query: And then C[C@@H]1OC(O[C@H]2[C@H](OC(=O)[C@]34CCC(C)(C)CC3C3=CCC5[C@@]6(C)CC[C@H](OC7O[C@@H](C)[C@H](O[C@@H]8OC[C@@H](O)[C@H](O)[C@H]8O)[C@@H](O)[C@H]7O)C(C)(C)C6CC[C@@]5(C)[C@]3(C)CC4O)OC[C@H](O)[C@H]2O)[C@H](O)[C@H](O)[C@H]1O[C@@H]1O[C@H](CO)[C@@H](O)[C@H](O)[C@H]1O (stereo partly specified) , what is it?
Response: 0.0581

New cases:
Query: // returns reported normalized growth for input C[C@H]1[C@H](C)CC[C@]2(CO)CC[C@]3(C)C(=CCC4[C@@]5(C)CC[C@H](O)C(C)(C)C5CC[C@]43C)[C@H]12 (stereo partly specified)
Response: 1.01
